# System: MS2 coat protein
# Experiment description: apparent KD of MS2 coat protein; designed switch direction (-1 OFF switch, 1 ON switch): 1; higher = weaker reporter binding
# Test parameters: input ligand: FMN 200 uM
Hi there, I'd appreciate the recorded apparent KD of MS2 coat protein for every entry that follows.
Write the number in nM without appending the unit.

In: Quick one: apparent KD of MS2 coat protein of AGUCCAGCCUGAGCUGGACAAAAGCAUGUACAUGAGGAUCACCCAUGUUCAUGUACAAGCUUUUUGCUCGUCUUGAA [salish99_208a_r3_095x] (Eterna round: R96, puzzle: Sensor for hsa-mir-208a) ?
Out: 646

In: Same read-out for AGGCUCAGACGAGGAUAUAUGCGAUCACAUGAGGAUCACCCAUGUCUCGAGCUUCGGCUCGAGGCAUAGAAGGCGUCUGAGCCA [SSNG2/4-A1] (Eterna round: R96, puzzle: Same State NG 2) ?
Out: 16.4

In: Again, but for GUACAGAUUAUAGGAUAUCACGUCGAAUAGACGUGAGAAGGAUAAUCACACAUGAAUAUUAAUACAUGAGGAUCACCCAUGUAC [SSNG1/17-A1] (Eterna round: R96, puzzle: Same State NG 1)
Out: 16.7

====

# System: MS2 coat protein
# Experiment description: apparent KD of MS2 coat protein; designed switch direction (-1 OFF switch, 1 ON switch): -1; higher = weaker reporter binding
# Test parameters: input ligand: none
Experimental readout: apparent KD of MS2 coat protein (µM)
Provide only the numeric value, understood in µM.

In: Record GCACUGCGAGGAUAUACAUGAGGAUCACCCAUGUGUCGGCAGACAUGGUUAAUCUAAGGUAGAAGGCGCGUAAA [JR_Ex3_Sub004] (Eterna round: R97, puzzle: Exclusion 3) : what is its apparent KD of MS2 coat protein with MS2 coat protein?
Out: 0.993

In: Also, AUAGAGUUAGGAUAUGAGAGGCCGAACAUGAGGAUCACCCAUGUUCCGCGUGUUGCUCCCUUAGAAGGAACGAAUA [EX5 B.3] (Eterna round: R97, puzzle: Exclusion 5) please.
Out: 0.022

In: Please answer likewise for CGUAAGCUAGGAUAUGCUUUGGGAAAGCAUUCCUUCGAUAAACUUGAGGAUCACCCAAGUAGAAGGAGCUUACC [salish99_ex2_r4_009] (Eterna round: R97, puzzle: Exclusion 2)
Out: 0.0115

====

# Tested on: MS2 coat protein
# Experiment description: apparent KD of MS2 coat protein, switch ON state; designed switch direction (-1 OFF switch, 1 ON switch): -1; higher = weaker reporter binding
# Test parameters: FMN input: 0 or 200 uM; Eterna round: R93 (includes R88 designs)
Label MET when apparent KD of MS2 coat protein >= 0.04 µM; otherwise NOT MET.

In: Quick check: does AAAAAAUGAGGAUAUACAUGAGGAUCACCCAUGUAAAAGGUCAGGGUGGCGGAGGACGGUAGAAGGCAUAAAAA [Excls3-X] have apparent KD of MS2 coat protein greater than or equal to 0.04 µM?
Out: NOT MET

In: Then what about the sequence AAAAAGGUAGGAUAUGCUAAAUAACAUGUUGAAUAAAUAAAACAUGAGGAUCACCCAUGUAGAAGGACCAAAAA [Ex 2 Tesla 2] ?
Out: MET

In: Let us now turn to UUUAUGUGAGGAUAUGUACAGAAAAAAAAGGGUGUAACUGUACAGAAGGCACAUGAGGAUCACCCAUGUGAAUA [EX4 381: S S Pseudoknot 6]
Out: MET

In: # repeat for AAGAAGUCAGGAUAUGCUAAAGAAAUAAAAAUAAAUAAAGAACAUGAGGAUCACCCAUGUAGAAGGGACAAGAA [Sewadjkare Hori]
Out: MET

In: // repeat for AAAAAACAUGAGGAUCACCCAUGUAAGGAUAUGCAAAAUAAAAGAAAUAAAAAGGAAAGCAGAAGGUACAUGAA [JL wbt mod 8] and report
Out: NOT MET

In: Do the same for UCCUCACAUGAGGAUCACCCAUGUUAGGAUAUGCCCGGCGGGUUCUGACCUGCCUAAAGCAGAAGGAACGUGCG [Cexequge] please
Out: NOT MET

In: // repeat for AACCAACAUGAGGAUCACCCAUGUCAGGAUAUGCAAACAACAAACAACAAACAACAAAGCAGAAGGGACAACAA [63%, Olong, 1] and report
Out: NOT MET

In: Param item: AAAAAUUGAGGAUAUACGUACAUGUCAAAAGACGUGAAGGGACAUGAGGAUCACCCAUGUAGAAGGCGAAAGAA [JL Neck Breaker 13]
Out: NOT MET

In: Can you handle AACUGACAUGAGGAUCACCCAUGUCAGGAUAUGCUUCAUAAAACAAAAACAAAAUGAUGCAGAAGGGACAUGAA [Design 26 :P Sub-opt 2] next?
Out: NOT MET

In: Here is the next sequence: AAAGAUGCAGGAUAUACAUGAGGAUCACCCAUGUUAGACCUGAAAAAGGGAAAAGAAAGUAGAAGGGCAUAAUA [Ex 3 May 31]
Out: NOT MET

In: Again, but for AGUCAUACAGGAUAUACAUGAGGAUCACCCAUGUAUAUCCAAAAAAAAAAAUCCUCAUGUAGAAGGGUAUGACA [EX3 205: Super Stable 5]
Out: NOT MET

In: And what about the sequence AAAAAACAUGAGGAUCACCCAUGUGAGGAUAUACAGAAUGGAAUAAAAUAACAAGAAAGUAGAAGGCACAAAAA [Ex 1 May 38] ?
Out: NOT MET

In: Next: CUCAUGUCAGGAUAUGUAGCAUGAUACGAAAGUAUCAUGCUACAGAAGGGACAUGAGGAUCACCCAUGUGAUCA [Ex4: 941]
Out: NOT MET

In: Subsequent entry: UAAAGACAUGAGGAUCACCCAUGUGAGGAUAUGUGAGACAACAGAACAUCAAGUACAAGCAGAAGGCACAGAAA [JR_Exc001_Sub019]
Out: MET

In: # iterate: GGUUGGCGAGGAUAUACAUGAGGAUCACCCAUGUGAGAGAAAAAAGAGAGAAAGAAAAGUAGAAGGCGCUGACG [salish99-ex3-52]
Out: MET

In: // repeat for UUAGAACAUGAGGAUCACCCAUGUGAGGAUAUGCAAUACUAAAAAAAAGAUAAUUAUAGCAGAAGGCACGUAGU [JR_EXc001_Sub805] and report
Out: NOT MET

In: Same thing, different sequence: AAAACACAUGAGGAUCACCCAUGUGAGGAUAUGAACGAAAUAAAAUAAAAAUAAAAGUUCAGAAGGCACAAAAA [Mat - Exclusion 1 - Eli mod - D13]
Out: NOT MET

In: Here is the next sequence: AGUUGGCGAGGAUAUACAUGAGGAUCACCCAUGUGAAAUCGCGAAAAAAUAGGGAAAAGUAGAAGGCGCUGACA [73%, Moding Norbert Elias, 18]
Out: NOT MET

In: Next up: AAGAAGCUAGGAUAUACAUGAGGAUCACCCAUGUAAAAGAAAGAAAGGGAAAAGAAAAGUAGAAGGAGCAAGAA [Netjerikheperre-setpenamun Siamun-meryamun]
Out: NOT MET

In: Cool, now AUCAUGUAAGGAUAUAUAAGAAAAGAAAAGAAAGAAAAGAAAUAGAAGGUACAUGAGGAUCACCCAUGUAAGAA [EteRNA is fun!]
Out: NOT MET

In: Same lookup for AAAAAGUCAGGAUAUACAAAAGUGCGAAAGCACAAAAUGGGACAUGAGGAUCACCCAUGUAGAAGGGACAAGAA [JL In the Red 01 (Mod)] , please.
Out: MET

In: How about CUCUUGUCAGGAUAUGCAAGAAAAGAAAAGAAAGAAAAGAAGCAGAAGGGACAUGAGGAUCACCCAUGUAAGAA [EteRNA is fun!] ?
Out: MET

In: Try the sequence GGAUGCGAAGGAUAUACAUGAGGAUCACCCAUGUGAGAGAAAAAAGUGAGAAAGAAAAGUAGAAGGUCGUGUCG [salish99-ex3-93]
Out: NOT MET

In: Then AAAAAGUCAGGAUAUGUAGCAAAAAGUGAUCCAAAAAAGCUACAGAAGGGACAUGAGGAUCACCCAUGUAAAAA [Ex4: 931] ?
Out: MET

In: Subsequent entry: CAGUACUGAGGAUAUACAUGAGGAUCACCCAUGUGUAAAAGCUAGGAAACUAGCAAAUGUAGAAGGCAGUACUG [Ex3: 816]
Out: NOT MET
